Source of measurements: ChEMBL document CHEMBL1136566

- Tested System: Delta-type opioid receptor (Mus musculus) (UniProt P32300)
- Sequence (P32300 whole entry): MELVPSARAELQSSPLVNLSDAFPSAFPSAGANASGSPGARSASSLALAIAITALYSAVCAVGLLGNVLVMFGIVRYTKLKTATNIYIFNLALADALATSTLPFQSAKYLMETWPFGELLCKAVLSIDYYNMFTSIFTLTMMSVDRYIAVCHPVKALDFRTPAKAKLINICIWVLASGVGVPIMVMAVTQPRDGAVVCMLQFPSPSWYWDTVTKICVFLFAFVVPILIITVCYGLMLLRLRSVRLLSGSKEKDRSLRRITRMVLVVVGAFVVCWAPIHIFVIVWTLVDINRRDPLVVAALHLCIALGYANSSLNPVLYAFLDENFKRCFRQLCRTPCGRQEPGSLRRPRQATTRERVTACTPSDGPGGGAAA
- Assay Summary: Antagonist potency against delta opioid receptor was measured in mouse vas-deferens using DPDPE
- Format: functional
Quick reference for Ke among some compounds

[
  {
    "Molecular String": "Oc1ccc2c3c1O[C@H]1c4ncc(-n5cccc5)cc4C[C@@]4(O)[C@@H](C2)N(CC2CC2)CC[C@]314",
    "Units Symbol": "nM",
    "Ke": 6.6
  },
  {
    "Molecular String": "N#Cc1cnc2c(c1)C[C@@]1(O)[C@H]3Cc4ccc(O)c5c4[C@@]1(CCN3CC1CC1)[C@H]2O5",
    "Units Symbol": "nM",
    "Ke": 44
  },
  {
    "Molecular String": "Oc1ccc2c3c1O[C@H]1c4ncc(Br)cc4C[C@@]4(O)[C@@H](C2)N(CC2CC2)CC[C@]314",
    "Units Symbol": "nM",
    "Ke": 3.6
  },
  {
    "Molecular String": "N=C(N)Nc1cnc2c(c1)C[C@@]1(O)[C@H]3Cc4ccc(O)c5c4[C@@]1(CCN3CC1CC1)[C@H]2O5",
    "Units Symbol": "nM",
    "Ke": 170
  },
  {
    "Molecular String": "O=[N+]([O-])c1cnc2c(c1)C[C@@]1(O)[C@H]3Cc4ccc(O)c5c4[C@@]1(CCN3CC1CC1)[C@H]2O5",
    "Units Symbol": "nM",
    "Ke": 53
  },
  {
    "Molecular String": "Nc1cnc2c(c1)C[C@@]1(O)[C@H]3Cc4ccc(O)c5c4[C@@]1(CCN3CC1CC1)[C@H]2O5",
    "Units Symbol": "nM",
    "Ke": 25
  },
  {
    "Molecular String": "Oc1ccc2c3c1O[C@H]1c4ncc(NCc5ccccc5)cc4C[C@@]4(O)[C@@H](C2)N(CC2CC2)CC[C@]314",
    "Units Symbol": "nM",
    "Ke": 6.5
  }
]
